# measurementTarget: HIV-RT (Human immunodeficiency virus type 1 group M subtype B)
# Construct: HIV-RT HIV reverse transcriptase; purchased Roboklon
# experimentNotes: Primer extension assay using HIV-RT
# Type: biochemical
# statedConditions: 30 min, 6 U HIV-RT, 37 °C
quantityKind: substrate for HIV-RT (primer extension)

Here is how some compounds turned out for substrate for HIV-RT (primer extension).
CCCCCCCCCCCCCCCCCCOP(=O)(OCCCC)OP(=O)(O)OP(=O)(O)OP(=O)(O)OC[C@@H]1C=C[C@H](n2cc(C)c(=O)[nH]c2=O)O1 (stereo partly drawn) [4d, δ-(Alkyl-C4; alkyl-C18)-d4T4P]: good substrates
Cc1cn(C2C=CC(COP(=O)(O)OP(=O)(O)O)O2)c(=O)[nH]c1=O (stereo not drawn) [d4TDP, reference compound]: good substrates
CCCCCCCCCCCCCCCCCCP(=O)(O)OP(=O)(O)OP(=O)(O)OP(=O)(O)OC[C@@H]1C=C[C@H](n2cc(C)c(=O)[nH]c2=O)O1 [compound 24, δ-C-(Alkyl-C18)-d4T4P]: substrates
CCCCCCCCCCCCCCCCCCP(=O)(OCCCC)OP(=O)(O)OP(=O)(O)OP(=O)(O)OC[C@@H]1C=C[C@H](n2cc(C)c(=O)[nH]c2=O)O1 (stereo partly drawn) [5a, δ-(Alkyl-C4)-δ-C-(alkyl-C18)-d4T4P]: good substrates

Proceeding to the next compound to report its substrate for HIV-RT (primer extension).
## Input Request: substrate for HIV-RT (primer extension), test system HIV-RT (Human immunodeficiency virus type 1 group M subtype B), entry CCCCCCCCCCCCCCCCCCOP(=O)(O)OP(=O)(O)OP(=O)(O)OP(=O)(O)OC[C@@H]1C=C[C@H](n2cc(C)c(=O)[nH]c2=O)O1 [compound 20, δ-(Alkyl-C18)-d4T4P]
## Output substrates

====

# experimentNotes: Chemical hydrolysis in aqueous buffers (PBS pH 7.3 / 8.0, citrate buffer pH 2.0), RP18-HPLC
# Assay type: physicochemical
# statedConditions: phosphate buffered saline; PBS, pH 8.0, 37 °C; read-out: PBS pH 8.0 t1/2 (converted)
For each of the molecules below, state its half-life at 1.9 mM.

## Input What half-life at 1.9 mM value was documented for this molecule, CCCCCCCCCCCCCCCCCCP(=O)(OCCCC)OP(=O)(O)OP(=O)(O)OP(=O)(O)OC[C@@H]1C=C[C@H](n2cc(C)c(=O)[nH]c2=O)O1 (stereo partly drawn) ?
## Output > 8.33 days

## Input What half-life at 1.9 mM value was documented for this molecule, CCCCCCCCCCCCCCCCCCOP(=O)(OCCCC)OP(=O)(O)OP(=O)(O)OP(=O)(O)OC[C@@H]1C=C[C@H](n2cc(C)c(=O)[nH]c2=O)O1 (stereo partly drawn) ?
## Output > 4.17 days

## Input What half-life at 1.9 mM value was documented for this molecule, `Cc1cn([C@H]2C=C[C@@H](COP(=O)(O)OP(=O)(O)OP(=O)(O)OP(=O)(O)O)O2)c(=O)[nH]c1=O` ?
## Output > 6.25 days

====

For each of the molecules below, state its CC50.
# experimentNotes: Cytotoxicity, inhibition of CEM cell proliferation
# Format: cell-based
# statedConditions: human, CEM cells (CD4+ T-cells), read-out: toxicity CC50

## Input What CC50 value was documented for this molecule, `Cc1cn([C@H]2C=C[C@@H](COP(=O)(O)OP(=O)(O)OP(=O)(O)OP(=O)(O)O)O2)c(=O)[nH]c1=O` ?
## Output > 100 µM

## Input What CC50 value was documented for this molecule, Cc1cn([C@H]2C=C[C@@H](CO)O2)c(=O)[nH]c1=O [d4T, 3′-deoxy-2′,3′-didehydrothymidine, reference compound] ?
## Output > 50 µM

## Input What CC50 value was documented for this molecule, CCCCCCCCCCCCCCCCCCP(=O)(OCC(CC)CCCC)OP(=O)(O)OP(=O)(O)OP(=O)(O)OC[C@@H]1C=C[C@H](n2cc(C)c(=O)[nH]c2=O)O1 (stereo partly drawn) ?
## Output > 100 µM

Where these numbers come from: paper PMC10895676
